target: NM23-H2 wild-type (UniProt P22392 1-152); test: ELISA
Sequence (P22392 whole entry): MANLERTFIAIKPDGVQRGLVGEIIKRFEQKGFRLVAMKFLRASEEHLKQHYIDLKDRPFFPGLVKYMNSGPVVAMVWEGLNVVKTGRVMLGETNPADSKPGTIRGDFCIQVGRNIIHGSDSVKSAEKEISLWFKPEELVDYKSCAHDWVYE
observed property: Kd

[Q] Fill in the blank: the reported Kd of AGGGTGGGGAGGGTGGGG (structured_DNA) [c-MYC Pu18 G-quadruplex] is ____.
[A] 530 nM
